Examples of binders with documented hIZCD40L-driven Human B Cell Proliferation EC50 follow.
# assayed_target: T1, human isoleucine zipper-CD40L (IZ-hCD40L) (human, UniProt P29965 113-261)
# T1 sequence: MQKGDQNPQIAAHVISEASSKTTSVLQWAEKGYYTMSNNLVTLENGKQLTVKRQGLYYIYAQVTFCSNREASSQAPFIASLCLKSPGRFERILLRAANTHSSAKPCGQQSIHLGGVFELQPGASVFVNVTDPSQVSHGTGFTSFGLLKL
# protocol_details: cell-based or functional assay
Write down the numeric answer in µM and omit the unit.

[in] Consider the binder BMS2h-757 (other) VH: EVQLLESGGGLVQPGGSLRLSCAASGFTFKEYNMAWVRQAPGKGLEWVSSINFAGRTTYYADSVKGRFTISRDNSKNTLYLQMNSLRAEDTAVYYCAKLSLPLDIFSFDYWGQGTLVTVSS and give its measured hIZCD40L-driven Human B Cell Proliferation EC50.
[out] 6.4

Now, please, on to the next binder.
[in] Could you share which hIZCD40L-driven Human B Cell Proliferation EC50 value was measured for BMS2h-572-632 (other) VH: EVQLLESGGGLVQPGGSLRLSCAASGFTFKWQLMGWVRQAPGKGLEWVSGIEGPGDVTYYADSVKGRFTISRDNSKNTLYLQMNSLRAEDTAVYYCVKVGKDSKSDYRGQGTLVTVSS ?
[out] 0.117

These entries and their values trace back to patent US20160075790A1.
